# Organism: Homo sapiens
# method_summary: Selectivity index, ratio of IC50 for N-terminal GST-tagged full-length human CDK2 (1 to 298 residues)/Cyclin E (1 to 410 residues) expressed in baculovirus expression system to IC50 for N-terminal GST-fused full-length human CDC7 (1 to 574 end residues)/DBF4 (1 to 674 residues) expressed in baculovirus expression system
assay_endpoint: Ratio IC50
Give the figure only, with no unit attached.

                           smiles_structure  assay_endpoint  measured_value
0  Cc1n[nH]cc1-c1cc2nc([C@]3(C)CCCN3)[nH]c(=O)c2s1      Ratio IC50            1000
1  Cc1n[nH]cc1-c1cc2nc([C@@H]3CCCN3)[nH]c(=O)c2s1      Ratio IC50            5500
2  Cc1n[nH]cc1-c1cc2nc([C@H]3NCC[C@@H]3C)[nH]c(=O)c2s1      Ratio IC50            1000
3  Cc1n[nH]cc1-c1cc2nc([C@@H]3C[C@H](C)CN3)[nH]c(=O)c2s1      Ratio IC50            2800
4  Cc1n[nH]cc1-c1cc2nc([C@@H]3CC=CCN3)[nH]c(=O)c2s1      Ratio IC50            8900

input: Give me measured Ratio IC50, please, for this molecule: Cc1n[nH]cc1-c1cc2nc([C@@H]3CCCCCN3)[nH]c(=O)c2s1
output: 2300

input: Name the recorded Ratio IC50 of the item Cc1n[nH]cc1-c1cc2nc([C@@H]3CCN3)[nH]c(=O)c2s1 in your answer.
output: 3300

input: Give me measured Ratio IC50, please, for this molecule: Cc1n[nH]cc1-c1cc2nc(C34CCC(CC3)N4)[nH]c(=O)c2s1
output: 9400

---

# measurement_target: CDC7/DBF4 (Cell division cycle 7-related protein kinase/Activator of S phase kinase) (Homo sapiens, UniProt O00311)
# method_summary: Inhibition of N-terminal GST-fused full-length human CDC7 (1 to 574 end residues)/DBF4 (1 to 674 residues) expressed in baculovirus expression system using MCM2 as substrate preincubated with enzyme for 10 mins prior to 1 uM ATP addition by HTRF transcreener ADP assay
assay_endpoint: IC50

Examples with answers:
In [3]: df
Out[3]:
                           smiles_structure  assay_endpoint  measured_value
0  Cc1n[nH]cc1-c1cc2nc([C@@H]3CC=CCN3)[nH]c(=O)c2s1            IC50         0.53 nM
1  Cc1n[nH]cc1-c1cc2nc(C34CC(CN3)C4)[nH]c(=O)c2s1            IC50         0.16 nM
2  Cc1n[nH]cc1-c1cc2nc([C@@H]3C[C@H](C)CN3)[nH]c(=O)c2s1            IC50          1.3 nM
3  Cc1n[nH]cc1-c1cc2nc([C@@H]3CCC(C)(C)N3)[nH]c(=O)c2s1            IC50          1.9 nM
4  Cc1n[nH]cc1-c1cc2nc([C@H]3CCCCN3)[nH]c(=O)c2s1            IC50         0.91 nM

input: Provide IC50 value for the following molecule: Cc1n[nH]cc1-c1cc2nc([C@@H]3CCN3)[nH]c(=O)c2s1
output: 2.1 nM

input: Specify IC50 for Cc1n[nH]cc1-c1cc2nc([C@H]3CC4CCN3CC4)[nH]c(=O)c2s1 and stop.
output: 1 nM

input: Return value of IC50 for input Cc1[nH]ncc1-c1cc2nc([C@@H]3CC4CCN3CC4)[nH]c(=O)c2s1 , no commentary.
output: 0.26 nM

input: Please look at this molecule and report its IC50: Cc1n[nH]cc1-c1cc2nc([C@@H]3CCCN3)[nH]c(=O)c2s1
output: 0.71 nM

input: Report measured IC50; entry is Cc1n[nH]cc1-c1cc2nc([C@]3(C)CCCN3)[nH]c(=O)c2s1
output: 9.8 nM

---

# measurement_target: Cyclin-dependent kinase 2/cyclin E1 (Homo sapiens)
# method_summary: Inhibition of N-terminal GST-tagged full-length human CDK2 (1 to 298 residues)/Cyclin E (1 to 410 residues) expressed in baculovirus expression system using histone H1 as susbtrate after 90 mins by Kinase-Glo luminescence assay
assay_endpoint: IC50 (µM)
# number only, unit µM dropped from output

Example compounds with recorded IC50:
                           smiles_structure  measured_value
0  Cc1n[nH]cc1-c1cc2nc([C@@H]3CCCCN3)[nH]c(=O)c2s1.Cl.Cl             6.5
1  Cc1n[nH]cc1-c1cc2nc([C@H]3NCC[C@@H]3C)[nH]c(=O)c2s1            0.62
2  O=c1[nH]c([C@@H]2CCCCN2)nc2cc(-c3c[nH]nc3C(F)(F)F)sc12             9.5
3  Cc1n[nH]cc1-c1cc2nc(C34CC(CN3)C4)[nH]c(=O)c2s1             2.7
4  Cc1n[nH]cc1-c1cc2nc([C@@H]3C[C@H](C)CN3)[nH]c(=O)c2s1             3.7
5  Cc1n[nH]cc1-c1cc2nc([C@@H]3CC=CCN3)[nH]c(=O)c2s1             4.7
6  Cc1n[nH]cc1-c1cc2nc([C@@H]3CCCCCN3)[nH]c(=O)c2s1             2.8
7  Cc1n[nH]cc1-c1cc2nc([C@]3(C)CCCN3)[nH]c(=O)c2s1             9.9

input: Using the record for Cc1n[nH]cc1-c1cc2nc([C@H]3CCCCN3)[nH]c(=O)c2s1 , state its measured IC50.
output: 4.8

input: Hello, please tell me recorded IC50 for this one: Cc1n[nH]cc1-c1cc2nc([C@@H]3CCN3)[nH]c(=O)c2s1
output: 6.9

input: Provide measured IC50 value, entry: Cc1n[nH]cc1-c1cc2nc(C34CCC(CC3)N4)[nH]c(=O)c2s1
output: 1.5

input: Quick one: give measured IC50 for Cc1n[nH]cc1-c1cc2nc([C@@H]3CCCN3)[nH]c(=O)c2s1
output: 3.9

---

# method_summary: Cmax in mouse at 10 mg/kg, po dosed via cassette dosing
# Format: ADME, organism-based
# Design: dose 10 mg/kg, route oral
# run_conditions: in vivo
assay_endpoint: Cmax (ng/mL)
Field: numeric (ng/mL). Do not append units.

input: Provide measured Cmax value, entry: Cc1n[nH]cc1-c1cc2nc([C@@H]3CCCCN3)[nH]c(=O)c2s1.Cl.Cl
output: 978

---

# measurement_target: Myotonin-protein kinase (Homo sapiens, UniProt Q09013)
# method_summary: Inhibition of kinase tracer 236 binding to recombinant full-length human GST-tagged DMPK expressed in baculovirus expression system by Lanthascreen Eu kinase binding assay
assay_endpoint: IC50 (nM)
Quick note: give the figure in nM, leave out the unit.

input: Give the measured IC50 for Cc1n[nH]cc1-c1cc2nc([C@@H]3CCCCN3)[nH]c(=O)c2s1.Cl.Cl
output: 64.6

---

# measurement_target: Rho-associated protein kinase 1 (Homo sapiens, UniProt Q13464)
assay_endpoint: pIC50
Please keep in mind that pIC50 is minus log10 of the molar concentration; only the number is needed.

# count of solved cases: 2
                           smiles_structure  measured_value
0  Cc1n[nH]cc1-c1cc2nc([C@@H]3CCCCCN3)[nH]c(=O)c2s1            6.35
1  Cc1[nH]ncc1-c1cc2nc([C@@H]3CC4CCN3CC4)[nH]c(=O)c2s1            6.37

input: # assay system Rho-associated protein kinase 1 (Homo sapiens, UniProt Q13464): give pIC50 of Cc1n[nH]cc1-c1cc2nc([C@@H]3CC=CCN3)[nH]c(=O)c2s1
output: 6.47

input: Give the observed pIC50 of O=c1[nH]c([C@@H]2CCCCN2)nc2cc(-c3c[nH]nc3C(F)(F)F)sc12 for Rho-associated protein kinase 1 (Homo sapiens, UniProt Q13464).
output: 6.28

---

# measurement_target: Cyclin-dependent kinase 2/cyclin E1 (Homo sapiens)
# method_summary: Inhibition of N-terminal GST-tagged full-length human CDK2 (1 to 298 residues)/Cyclin E (1 to 410 residues) expressed in baculovirus expression system using histone H1 as susbtrate after 90 mins by Kinase-Glo luminescence assay
pIC50: −log10 of the molar value.
assay_endpoint: pIC50

Reference set, count: 2
>>> df
                           smiles_structure  measured_value
0  Cc1n[nH]cc1-c1cc2nc([C@@H]3CCC(C)(C)N3)[nH]c(=O)c2s1          < 5.00
1  Cc1n[nH]cc1-c1cc2nc([C@@H]3CCCN3C)[nH]c(=O)c2s1          < 5.00

Could you now consider this next compound?
input: Using Cyclin-dependent kinase 2/cyclin E1 (Homo sapiens) as the test system, report measured pIC50 of Cc1n[nH]cc1-c1cc2nc([C@H]3CC4CCN3CC4)[nH]c(=O)c2s1 .
output: < 5.00

FYI, the data here is from ChEMBL document CHEMBL4321874.
